This collection of values is drawn from patent US11091428B2.

System: picornaviruses (CVB1, HRV-A2, HRV-A23, EV-68)
Assay: Anti-picornavirus cytopathic effect (CPE) reduction assay on HeLa H1 cells
Type: cell-based
Conditions: Enterovirus B, HeLa H1, 48 h, HeLa H1 cells, 48 h, category from averaging the EC50 values from four picornaviruses (CVB1, HRV-A2, HRV-A23, EV68); read-out: EC50 values of the compounds determined in the anti-picornavirus assay
# EC50 per record follows

Check out these entries, answers already filled in.
compound: NC(=O)c1cccc(CN2C(=O)CCC2C(=O)C(=O)NCC2CC2)c1 (stereo not shown)
EC50: 1000 to 10000 nM

compound: O=C(COCc1ccccc1)C(=O)NCC1CC1
EC50: < 1000 nM

compound: O=C(NCC1CCCCC1)C(=O)C1CCC(=O)N1Cc1ccc2c(c1)CNC2=O (stereo not shown)
EC50: 1000 to 10000 nM

compound: O=C(NCC(F)F)C(=O)[C@H]1CCC(=O)N1Cc1ccccc1
EC50: < 1000 nM

compound: Cc1ccccc1C(=O)N[C@@H](C)C(=O)C(=O)NCC1CC1 (single isomer, unassigned)
EC50: 1000 to 10000 nM

Reported EC50 ( "O=C(NCCNC(=O)C1CCC1)C(=O)[C@H]1CCC(=O)N1Cc1ccccc1" ) = 1000 to 10000 nM

Reported EC50 ( C[C@H]1CC(=O)N(Cc2ccccc2)[C@H]1C(=O)C(=O)NC1CC1 (single isomer, unassigned) ) = 1000 to 10000 nM

Reported EC50 ( CC(NC(=O)C1CC(F)(F)C1)C(=O)C(=O)NCC1CC1 (stereo not shown) ) = > 10000 nM

Reported EC50 ( CC(=O)NCCCCCCNC(=O)C(=O)C1CCC(=O)N1Cc1ccc(Cl)cc1 (stereo not shown) ) = 1000 to 10000 nM

Reported EC50 ( CCC(=O)N(c1ccccc1OC)C(C)C(=O)C(=O)NCc1cccc(Cl)c1 (stereo not shown) ) = 1000 to 10000 nM
